Test system: NCI-H1355
experiment_summary: relative viability (nuclei count vs DMSO), 5 days (fraction); higher = more cells survive
details: first compound 8 µM
quantity: relative viability
Give the figure only, with no unit attached.

Query block: Provide the documented relative viability with NCI-H1355 as the system for CCCCCCCCCCCC1=C(O)C(=O)C=C(O)C1=O [Embelin] + O=C(CCCCCCC(=O)Nc1ccccc1)NO [Vorinostat] (partner 1 µM)
Result block: 0.523

Query block: Short answer please: relative viability, NCI-H1355, entry CCCCCCCCCCCC1=C(O)C(=O)C=C(O)C1=O [Embelin] + CC(C)C[C@H](NC(=O)[C@H](Cc1ccccc1)NC(=O)c1cnccn1)B(O)O [Bortezomib] (partner 0.002 µM)
Result block: 1.02

Query block: Fill in the recorded relative viability for this compound, with NCI-H1355 as test system: CCCCCCCCCCCC1=C(O)C(=O)C=C(O)C1=O [Embelin] + Cc1nc(Nc2ncc(C(=O)Nc3c(C)cccc3Cl)s2)cc(N2CCN(CCO)CC2)n1 [Dasatinib] (partner 0.075 µM)
Result block: 0.586

----------
System: EMC-BAC-2
experiment_summary: relative viability (nuclei count vs DMSO), 5 days (fraction); higher = more cells survive
details: first compound 0.04 µM
quantity: relative viability
Number only, please.

- Clc1ccc(Nc2nnc(Cc3ccncc3)c3ccccc23)cc1 [Vatalanib] + Nc1nc2[nH]cc(CCc3ccc(C(=O)N[C@@H](CCC(=O)O)C(=O)O)cc3)c2c(=O)[nH]1 [Pemetrexed] (partner 0.2 µM): 0.452

Query block: Data request, read-out relative viability, for C[C@@H]1CN(CC(=O)Nc2ccc3c(c2)Cc2cccc(-c4cc(=O)cc(N5CCOCC5)o4)c2S3)C[C@H](C)O1 + CCNC(=O)c1noc(-c2cc(C(C)C)c(O)cc2O)c1-c1ccc(CN2CCOCC2)cc1 [Luminespib] (partner 0.01 µM)
Result block: 1.28

Query block: Any idea what its relative viability is? The compound is Clc1ccc(Nc2nnc(Cc3ccncc3)c3ccccc23)cc1 [Vatalanib] + CCNC(=O)c1noc(-c2cc(C(C)C)c(O)cc2O)c1-c1ccc(CN2CCOCC2)cc1 [Luminespib] (partner 0.01 µM)
Result block: 1.16

----------
// values below are reported relative viability
Tested on: NCI-H358
experiment_summary: relative viability (nuclei count vs DMSO), 5 days (fraction); higher = more cells survive
details: first compound 8 µM
Give the figure only, with no unit attached.

Recorded relative viability, per entry:
• CCCCCCCCCCCC1=C(O)C(=O)C=C(O)C1=O [Embelin] + O=C(CCCCCCC(=O)Nc1ccccc1)NO [Vorinostat] (partner 1 µM) = 0.697
• CCCCCCCCCCCC1=C(O)C(=O)C=C(O)C1=O [Embelin] + CCNC(=O)c1noc(-c2cc(C(C)C)c(O)cc2O)c1-c1ccc(CN2CCOCC2)cc1 [Luminespib] (partner 0.01 µM) = 0.306
• CCCCCCCCCCCC1=C(O)C(=O)C=C(O)C1=O [Embelin] + Nc1nc2[nH]cc(CCc3ccc(C(=O)N[C@@H](CCC(=O)O)C(=O)O)cc3)c2c(=O)[nH]1 [Pemetrexed] (partner 0.2 µM) = 0.175
• CCCCCCCCCCCC1=C(O)C(=O)C=C(O)C1=O [Embelin] + CS(=O)(=O)N1CCN(Cc2cc3nc(-c4cccc5[nH]ncc45)nc(N4CCOCC4)c3s2)CC1 [Pictilisib] (partner 1 µM) = 0.294

Could you now consider this next compound?
Query block: # get_value(readout= relative viability, system= NCI-H358) for CCCCCCCCCCCC1=C(O)C(=O)C=C(O)C1=O [Embelin] + CC(=O)Nc1cccc(-n2c(=O)n(C3CC3)c(=O)c3c(Nc4ccc(I)cc4F)n(C)c(=O)c(C)c32)c1 [Trametinib] (partner 0.02 µM)
Result block: 0.14

----------
Tested on: HCC-366
experiment_summary: relative viability (nuclei count vs DMSO), 5 days (fraction); higher = more cells survive
details: first compound 1.265 µM
Criterion: relative viability strictly under 0.7. Met: MET. Not met: NOT MET.

* Clc1ccc(Nc2nnc(Cc3ccncc3)c3ccccc23)cc1 [Vatalanib] + O=C(CCCCCCC(=O)Nc1ccccc1)NO [Vorinostat] (partner 1 µM) | MET
* Clc1ccc(Nc2nnc(Cc3ccncc3)c3ccccc23)cc1 [Vatalanib] + Nc1ncn([C@H]2C[C@H](O)[C@@H](CO)O2)c(=O)n1 [Decitabine] (partner 2 µM) | MET
* Clc1ccc(Nc2nnc(Cc3ccncc3)c3ccccc23)cc1 [Vatalanib] + COc1cccc2cc(-c3nc([C@H]4CC[C@H](C(=O)O)CC4)n4ncnc(N)c34)[nH]c12 [OSI-027] (partner 0.5 µM) | NOT MET

For the next question, use this molecule.
Query block: Is it true that relative viability reported for COc1cc(N2CCC(C(N)=O)CC2)ccc1Nc1nc(N)c(Cl)c(Nc2ccccc2S(=O)(=O)C(C)C)n1 [HG-5-88-01] + CC(=O)c1c(C)c2cnc(Nc3ccc(N4CCNCC4)cn3)nc2n(C2CCCC2)c1=O [Palbociclib] (partner 0.5 µM) is less than 0.7?
Result block: MET

----------
# relative viability annotations
System: NCI-H1703
experiment_summary: relative viability (nuclei count vs DMSO), 5 days (fraction); higher = more cells survive
details: first compound 4 µM
Just the number.

* COc1cc(N2CCC(C(N)=O)CC2)ccc1Nc1nc(N)c(Cl)c(Nc2ccccc2S(=O)(=O)C(C)C)n1 [HG-5-88-01] + O=C(c1cc(Cc2n[nH]c(=O)c3ccccc23)ccc1F)N1CCN(C(=O)C2CC2)CC1 [Olaparib] (partner 8 µM) | 0.309

Okay, next one:
Query block: Tell me reported relative viability for Clc1ccc(Nc2nnc(Cc3ccncc3)c3ccccc23)cc1 [Vatalanib] + C[C@@H](Oc1cc(-c2cnn(C3CCNCC3)c2)cnc1N)c1c(Cl)ccc(F)c1Cl [Crizotinib] (partner 1 µM) , tested with NCI-H1703.
Result block: 0.303

----------
# relative viability per record follows
Tested on: COR-L 105
experiment_summary: relative viability (nuclei count vs DMSO), 5 days (fraction); higher = more cells survive
details: first compound 0.1265 µM

See these solved cases before continuing.
- COc1cc(N2CCC(C(N)=O)CC2)ccc1Nc1nc(N)c(Cl)c(Nc2ccccc2S(=O)(=O)C(C)C)n1 [HG-5-88-01] + CS(=O)(=O)CCNCc1ccc(-c2ccc3ncnc(Nc4ccc(OCc5cccc(F)c5)c(Cl)c4)c3c2)o1 [Lapatinib] (partner 2 µM): 0.375
- COc1cc(N2CCC(C(N)=O)CC2)ccc1Nc1nc(N)c(Cl)c(Nc2ccccc2S(=O)(=O)C(C)C)n1 [HG-5-88-01] + O=C(c1cc(Cc2n[nH]c(=O)c3ccccc23)ccc1F)N1CCN(C(=O)C2CC2)CC1 [Olaparib] (partner 8 µM): 0.765

Now for the molecule whose relative viability we want.
Query block: Need relative viability of Clc1ccc(Nc2nnc(Cc3ccncc3)c3ccccc23)cc1 [Vatalanib] + CC1(C)CCC(c2ccc(Cl)cc2)=C(CN2CCN(c3ccc(C(=O)NS(=O)(=O)c4ccc(N[C@H](CCN5CCOCC5)CSc5ccccc5)c(S(=O)(=O)C(F)(F)F)c4)cc3)CC2)C1 [Navitoclax] (partner 0.5 µM) , thanks.
Result block: 0.928

----------
Tested on: EMC-BAC-2
experiment_summary: relative viability (nuclei count vs DMSO), 5 days (fraction); higher = more cells survive
details: first compound 0.4 µM
relative viability listing for selected compounds.
Please reply with the number alone, leaving off any unit.

Examples with answers:
- COc1cc(N2CCC(C(N)=O)CC2)ccc1Nc1nc(N)c(Cl)c(Nc2ccccc2S(=O)(=O)C(C)C)n1 [HG-5-88-01] + COc1cccc2cc(-c3nc([C@H]4CC[C@H](C(=O)O)CC4)n4ncnc(N)c34)[nH]c12 [OSI-027] (partner 0.5 µM): 0.326
- COc1cc(N2CCC(C(N)=O)CC2)ccc1Nc1nc(N)c(Cl)c(Nc2ccccc2S(=O)(=O)C(C)C)n1 [HG-5-88-01] + COc1cc2c(Oc3ccc(NC(=O)C4(C(=O)Nc5ccc(F)cc5)CC4)cc3F)ccnc2cc1OCCCN1CCOCC1 [Foretinib] (partner 0.25 µM): 0.973

Could you now consider this next compound?
Query block: Fill blank: measured relative viability of the compound COc1cc(N2CCC(C(N)=O)CC2)ccc1Nc1nc(N)c(Cl)c(Nc2ccccc2S(=O)(=O)C(C)C)n1 [HG-5-88-01] + CC(=O)Nc1cccc(-n2c(=O)n(C3CC3)c(=O)c3c(Nc4ccc(I)cc4F)n(C)c(=O)c(C)c32)c1 [Trametinib] (partner 0.02 µM) is ____.
Result block: 0.8

----------
Test system: HCC-78
experiment_summary: relative viability (nuclei count vs DMSO), 5 days (fraction); higher = more cells survive
details: first compound 0.01 µM
Rule for this label: yes (1) means relative viability is less than 0.4; no (0) means relative viability is at least 0.4.

Use the examples below as a reference point.
* CC(C)Oc1cc(Nc2nc(N[C@@H](C)c3ccc(F)cn3)ncc2Cl)n[nH]1 [AZ23] + N=C(N)NC(=N)NCCc1ccccc1 [Phenformin] (partner 250 µM) | no (0)
* CC(C)Oc1cc(Nc2nc(N[C@@H](C)c3ccc(F)cn3)ncc2Cl)n[nH]1 [AZ23] + O=C(CCCCCCC(=O)Nc1ccccc1)NO [Vorinostat] (partner 1 µM) | no (0)
* CC(C)Oc1cc(Nc2nc(N[C@@H](C)c3ccc(F)cn3)ncc2Cl)n[nH]1 [AZ23] + Nc1ncn([C@H]2C[C@H](O)[C@@H](CO)O2)c(=O)n1 [Decitabine] (partner 2 µM) | no (0)
* CC(C)Oc1cc(Nc2nc(N[C@@H](C)c3ccc(F)cn3)ncc2Cl)n[nH]1 [AZ23] + Cc1nc(Nc2ncc(C(=O)Nc3c(C)cccc3Cl)s2)cc(N2CCN(CCO)CC2)n1 [Dasatinib] (partner 0.075 µM) | yes (1)

Query block: Check if relative viability falls below 0.4 for CC(C)Oc1cc(Nc2nc(N[C@@H](C)c3ccc(F)cn3)ncc2Cl)n[nH]1 [AZ23] + NC(=O)Nc1cc(-c2cccc(F)c2)sc1C(=O)N[C@H]1CCCNC1 [AZD7762] (partner 0.2 µM) .
Result block: no (0)

Query block: Record CC(C)Oc1cc(Nc2nc(N[C@@H](C)c3ccc(F)cn3)ncc2Cl)n[nH]1 [AZ23] + Cc1nc(NC(=O)N2CCC[C@H]2C(N)=O)sc1-c1ccnc(C(C)(C)C(F)(F)F)c1 [Alpelisib] (partner 2 µM) : is its relative viability strictly below 0.4?
Result block: yes (1)

Query block: For this compound, is relative viability lower than 0.4? CC(C)Oc1cc(Nc2nc(N[C@@H](C)c3ccc(F)cn3)ncc2Cl)n[nH]1 [AZ23] + COc1cccc2cc(-c3nc([C@H]4CC[C@H](C(=O)O)CC4)n4ncnc(N)c34)[nH]c12 [OSI-027] (partner 0.5 µM)
Result block: no (0)
